# assay summary: Quantitative High-Throughput drug screen in 47 multiple myeloma cell lines against the NCATS MIPE library collection: KMM1_JCRB cell viability assay (AID 1918960); also: nearly all actives have a fitted effect of over 30% in size; also: potency is read from the fitted curve at half-maximal effect
# details: KMM1 myeloma viability, CellTiter-Glo ATP luminescence, 48 h; series mostly up to 45.8 µM
Inconclusive results are not listed. The source made the active and inactive calls. Calls follow the shape of the dose curve; as a rule, active = well fitted cell-killing curve with a large enough effect; inconclusive = small, poorly fitted or top-dose-only effect, or effect the other way; inactive = no such curve, though single readings can be large or run the other way.
endpoint: Potency

Recorded Potency, per entry:
CCC(=O)NCC[C@@H]1CCc2ccc3c(c21)CCO3 :: inactive
N#CC(=C1Nc2ccccc2S1)c1ccnc(OCc2ccc(CN3CCOCC3)cc2)n1 :: 0.0743 µM (active)
CC(C)=CCCC(C)=CCCC(C)=CCCC(C)=CCCC(C)=CCCC(C)=CCCC(C)=CCCC(C)=CCCC(C)=CCO :: inactive
Cc1ccc(NC(=O)Nc2cc(C(F)(F)F)ccc2F)cc1Nc1ccc2c(c1)NC(=O)C2=Cc1ccc[nH]1 :: 5.9 µM (active)
CN(C)CCOc1ccc(-c2nc(-c3ccc4c(c3)CCC4=NO)c(-c3ccncc3)[nH]2)cc1 :: 14.8 µM (active)

Provide measured Potency value, entry: `Cc1ccc(C(=O)N(CCCN)[C@@H](c2nc3cc(Cl)ccc3c(=O)n2Cc2ccccc2)C(C)C)cc1`
0.001 µM (active)

Provide measured Potency value, entry: `CSc1cccc(Nc2ncc3cc(-c4c(Cl)cccc4Cl)c(=O)n(C)c3n2)c1`
0.059 µM (active)

Provide Potency value for the following compound: `CNC(=O)c1cc(COc2nnc(Nc3ccc(Cl)cc3)c3ccoc23)ccn1`
9.35 µM (active)

Read the entry `CC(C)N(CCCNC(=O)Nc1ccc(C(C)(C)C)cc1)C[C@H]1O[C@@H](n2cc(Br)c3c(N)ncnc32)[C@H](O)[C@H]1O` and write its reported Potency.
inactive

---

# Test system: MKL-2
# assay summary: qHTS assay to identify novel small-molecules to repurpose for Merkel cell carcinoma treatment (AID 1296009); also: nearly all actives have a fitted effect of over 60% in size
# details: MCC and control cell lines, CellTiter-Glo viability, 72 h; series mostly up to 46 µM
Inconclusive results are not listed. Calls of active or inactive are those of the source. Calls follow the shape of the dose curve; as a rule, active = well fitted inhibition curve with a large enough effect; inconclusive = small, poorly fitted or top-dose-only effect; inactive = flat fitted curve, though single readings scatter.
Pick one and only one: True (active), False (inactive)

Cc1ccc(NC(=O)Nc2cc(C(F)(F)F)ccc2F)cc1Nc1ccc2c(c1)NC(=O)C2=Cc1ccc[nH]1 :: False
COC(=O)N1CCN(Cc2cccc(NC(=O)Nc3ccc(C)nc3)c2F)CC1 :: False
Cc1nc(C(=O)NCC(=O)O)c(O)c2ccc(Oc3ccccc3)cc12 :: False
CC=C1C2C=C(C)CC1(N)c1ccc(=O)[nH]c1C2 (centres undefined) :: False
COc1ccc(-c2oc3c(CC=C(C)C)c(O)cc(O)c3c(=O)c2O)cc1 :: False
COc1c(C)c2c(c(O)c1CC=C(C)CCC(=O)O)C(=O)OC2 :: True

For `COc1ccc(-c2ccc3ncc4c(c3c2)n(-c2ccc(N3CCNCC3)c(C(F)(F)F)c2)c(=O)n4C)cn1` , which call appears in the assay record?
True

// return assay outcome for `Cc1nc(NC(=O)N2CCC[C@@H]2C(N)=O)sc1-c1csc(C(C)(C)C)n1`
False

Assay outcome for `CCC[C@@H](NC(=O)[C@@H]1[C@H]2CCC[C@@H]2CN1C(=O)[C@@H](NC(=O)[C@@H](NC(=O)c1cnccn1)C1CCCCC1)C(C)(C)C)C(=O)C(=O)NC1CC1` : what was it?
False

Data origin: PubChem BioAssay (NCATS)
